This collection of values is drawn from paper PMC10287695.

# ASSAY_PROCEDURE: Cytotoxicity in mammalian cells (Cell Titer Glo)
# Assay type: cell-based
# CONDITIONS: African green monkey; Vero cells, Conc. 1 µM
Record form. Attribute: viability at 24 h, 1 µM. Fill in for each entry.
One number for each entry, in %.

structure_notation=C#CCN(Cc1nc(-c2ccccc2)oc1C)[C@@H]1C[C@@H]2C[C@H]([C@H]1C)C2(C)C data_value=99.1

Return reported viability at 24 h, 1 µM; argument: C[C@@H]1[C@H]2C[C@@H](C[C@H]1NCc1nc3ccccc3n1C1CCCCCC1)C2(C)C
97

* * *

# TARGET_OR_TEST_SYSTEM: Human GR (Homo sapiens)
# Construct: made in house
# Sequence (P00390 44-522): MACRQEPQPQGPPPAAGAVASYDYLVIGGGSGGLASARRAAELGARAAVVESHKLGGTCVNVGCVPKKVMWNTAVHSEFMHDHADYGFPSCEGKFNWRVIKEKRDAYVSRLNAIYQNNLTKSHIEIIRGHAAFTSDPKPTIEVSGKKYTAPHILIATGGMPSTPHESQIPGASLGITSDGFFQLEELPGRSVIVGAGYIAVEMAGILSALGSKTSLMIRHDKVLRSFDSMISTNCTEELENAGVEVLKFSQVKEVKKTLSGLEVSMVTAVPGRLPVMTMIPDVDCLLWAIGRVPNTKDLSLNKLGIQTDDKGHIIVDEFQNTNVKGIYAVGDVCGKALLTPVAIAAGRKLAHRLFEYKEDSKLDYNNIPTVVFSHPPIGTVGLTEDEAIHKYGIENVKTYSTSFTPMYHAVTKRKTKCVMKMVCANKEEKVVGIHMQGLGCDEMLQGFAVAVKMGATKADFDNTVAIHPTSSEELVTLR
# ASSAY_PROCEDURE: Human GR enzyme inhibition (GSSG reduction, NADPH oxidation)
# Format: biochemical
# CONDITIONS: hGR, 15 minutes pre-incubation, compound 30 µM; read-out: % inhibition
ENDPOINT_NAME: inhibition at 30 µM (%)
Numbers only, in %.

Recorded inhibition at 30 µM, per entry:
molecule=Cc1oc(C2CCCCC2)nc1C(=O)N[C@@H]1C[C@@H]2C[C@H]([C@H]1C)C2(C)C endpoint_name="inhibition at 30 µM" data_value=-0.696
molecule=C[C@@H]1[C@H]2C[C@@H](C[C@H]1NCc1nc3ccccc3n1C1CCCCCC1)C2(C)C endpoint_name="inhibition at 30 µM" data_value=-0.111
molecule=Cc1oc(-c2ccc3c(c2)OCO3)nc1CN[C@@H]1C[C@@H]2C[C@H]([C@H]1C)C2(C)C endpoint_name="inhibition at 30 µM" data_value=-0.832
molecule=CCc1ccccc1-c1nc(CN[C@@H]2C[C@@H]3C[C@H]([C@H]2C)C3(C)C)c(C)o1 endpoint_name="inhibition at 30 µM" data_value=-1.9

Turning now to a further record.
Return reported inhibition at 30 µM; argument: CC1C(NCc2cn(C3OCC(O)C(O)C3O)c3ccccc23)CC2CC1C2(C)C (centres unmarked)
-2.5

* * *

# TARGET_OR_TEST_SYSTEM: TGR (Schistosoma mansoni, UniProt Q962Y6)
# Construct: made in house
# Sequence (Q962Y6 1-598): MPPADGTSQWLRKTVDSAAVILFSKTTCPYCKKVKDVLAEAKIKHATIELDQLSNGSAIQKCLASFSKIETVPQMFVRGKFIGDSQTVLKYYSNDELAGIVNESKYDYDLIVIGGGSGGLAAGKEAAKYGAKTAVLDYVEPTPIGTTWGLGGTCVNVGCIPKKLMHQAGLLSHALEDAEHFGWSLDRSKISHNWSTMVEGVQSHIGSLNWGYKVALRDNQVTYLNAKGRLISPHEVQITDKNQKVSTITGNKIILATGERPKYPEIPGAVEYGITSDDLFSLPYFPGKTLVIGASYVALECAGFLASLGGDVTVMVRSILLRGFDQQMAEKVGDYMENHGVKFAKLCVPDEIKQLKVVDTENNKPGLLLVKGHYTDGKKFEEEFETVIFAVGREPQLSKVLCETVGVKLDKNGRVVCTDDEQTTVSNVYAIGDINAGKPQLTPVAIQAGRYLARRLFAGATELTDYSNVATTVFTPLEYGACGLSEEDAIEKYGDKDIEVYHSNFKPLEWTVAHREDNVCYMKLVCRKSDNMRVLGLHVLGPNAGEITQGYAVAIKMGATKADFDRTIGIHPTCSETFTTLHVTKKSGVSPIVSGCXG
# Type: biochemical, S. mansoni
# CONDITIONS: steady state
ENDPOINT_NAME: mode of inhibition (NADPH varied)

structure_notation=Cc1oc(-c2ccccc2)nc1CN[C@@H]1C[C@@H]2C[C@H]([C@H]1C)C2(C)C data_value="uncompetitive inhibition"
structure_notation=Cc1oc(C2CCCCC2)nc1C(=O)N[C@@H]1C[C@@H]2C[C@H]([C@H]1C)C2(C)C data_value="uncompetitive inhibition"
structure_notation=C[C@@H]1[C@H]2C[C@@H](C[C@H]1NCc1nc3ccccc3n1C1CCCCCC1)C2(C)C data_value="uncompetitive inhibition"

* * *

# TARGET_OR_TEST_SYSTEM: PfTrxR (Plasmodium falciparum, UniProt Q25861)
# Construct: 6-His (N); made in house; host or cells: E. coli BL21 (DE3)
# Sequence (Q25861 1-541): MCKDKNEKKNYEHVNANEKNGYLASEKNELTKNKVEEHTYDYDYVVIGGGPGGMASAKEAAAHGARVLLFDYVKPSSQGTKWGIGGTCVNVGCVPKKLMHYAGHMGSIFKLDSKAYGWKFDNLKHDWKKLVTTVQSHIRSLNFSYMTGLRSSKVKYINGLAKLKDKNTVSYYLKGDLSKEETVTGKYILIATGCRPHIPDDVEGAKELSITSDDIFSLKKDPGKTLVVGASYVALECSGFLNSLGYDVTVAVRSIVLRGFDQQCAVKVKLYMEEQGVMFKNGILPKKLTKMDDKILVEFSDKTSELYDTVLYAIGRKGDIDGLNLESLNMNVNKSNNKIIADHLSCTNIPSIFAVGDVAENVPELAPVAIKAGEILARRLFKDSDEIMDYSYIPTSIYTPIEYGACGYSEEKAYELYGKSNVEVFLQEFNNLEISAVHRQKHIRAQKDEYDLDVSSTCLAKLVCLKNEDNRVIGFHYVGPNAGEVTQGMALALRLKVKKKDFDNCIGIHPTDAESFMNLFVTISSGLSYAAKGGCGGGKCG
# ASSAY_PROCEDURE: P. falciparum TrxR enzyme inhibition
# Assay type: biochemical
ENDPOINT_NAME: inhibition at 10 µM (%)
One number for each entry, in %.

Working through the 6 compounds below one at a time, give inhibition at 10 µM for each.
1. C[C@@H]1[C@H]2C[C@@H](C[C@H]1NCc1nc3ccccc3n1C1CCCCCC1)C2(C)C
2. CCc1ccccc1-c1nc(CN[C@@H]2C[C@@H]3C[C@H]([C@H]2C)C3(C)C)c(C)o1
3. CC1C(NCc2cn(C3OCC(O)C(O)C3O)c3ccccc23)CC2CC1C2(C)C (stereo not drawn)
4. Cc1oc(C2CCCCC2)nc1CN[C@@H]1C[C@@H]2C[C@H]([C@H]1C)C2(C)C
5. Cc1oc(-c2ccc3ccccc3c2)nc1CNC1CCCCCC1
6. Cc1oc(C2CCCCC2)nc1C(=O)N[C@@H]1C[C@@H]2C[C@H]([C@H]1C)C2(C)C

1: -0.482; 2: -8.06; 3: 6.78; 4: 1.8; 5: -1.11; 6: -0.315
